Assay: Pharmacokinetic analysis of test compounds in AAV/HBV model mice
Format: in vivo, C57BL/6 mice
Conditions: C57BL/6, mouse, serum, po; 10 mg/kg, BID, AAV/HBV model mice, day 27
ASSAY ENDPOINT: AUC(0-inf) (µM·h)
// units = µM·h; emit number, no label

Quick check: AUC(0-inf) of Cc1cc2n(c1)S(=O)(=O)c1ccc(C(=O)NCC[C@H]3COCCO3)cc1NC2=O [Compound 1] ?
47.6

###

Assay: Pharmacokinetic analysis of test compounds in AAV/HBV model mice
Format: in vivo, C57BL/6 mice
Conditions: C57BL/6, mouse, serum; group 2, 10 mg/kg BID oral, day 27, 9 hours after the first dosage; read-out: average drug concentration in the mouse serum
ASSAY ENDPOINT: concentration at 9 h (µM)
Express your answer in µM, writing the number without its unit.

Which concentration at 9 h value belongs to Cc1cc2n(c1)S(=O)(=O)c1ccc(C(=O)NCC[C@H]3COCCO3)cc1NC2=O [Compound 1] ?
10.3

###

Assay: Pharmacokinetic analysis of test compounds in AAV/HBV model mice
Format: in vivo, C57BL/6 mice
Conditions: C57BL/6, mouse, serum; group 2, 10 mg/kg BID oral, day 27, 0 hours (before dosage); read-out: average drug concentration in the mouse serum
ASSAY ENDPOINT: concentration at 0 h (nM)
Write the value in nM as a bare number.

Endpoint output: concentration at 0 h of Cc1cc2n(c1)S(=O)(=O)c1ccc(C(=O)NCC[C@H]3COCCO3)cc1NC2=O . Value?
78

###

Experiment: Pharmacokinetic analysis of test compounds in AAV/HBV model mice
Type: in vivo, C57BL/6 mice
Details: C57BL/6, mouse, serum, po; 10 mg/kg, BID, AAV/HBV model mice, day 27
ASSAY ENDPOINT: Cmax
I'd appreciate it if you included the unit after the number.

Given the entry Cc1cc2n(c1)S(=O)(=O)c1ccc(C(=O)NCC[C@H]3COCCO3)cc1NC2=O , report its measured Cmax.
12.2 µM

###

Tested on: HBsAg
Assay: Single agent anti-HBV activity, HBsAg in supernatant by ELISA, HepG2.2.15 cells
Format: cell-based
Conditions: Hepatitis B virus, HepG2.2.15, 192 h, read-out: HBsAg EC50
ASSAY ENDPOINT: EC50 (nM)
Give just the numeric value; nM need not be written.

EC50 of COCCCOc1cc2c(cc1OC)-c1cc(=O)c(C(=O)O)cn1[C@H](c1cccs1)O2 [Compound of formula (IIIb)] on HBsAg?
0.91

Here is another molecule to look at.
I'm curious: which EC50 was measured for COCCCOc1cc2c(cc1OC)-c1cc(=O)c(C(=O)O)cn1[C@H](C(C)(C)C)CO2 [Compound of formula (IIb)] tested on HBsAg?
4.9

###

Test: Pharmacokinetic analysis of test compounds in AAV/HBV model mice
Type: in vivo, C57BL/6 mice
Details: C57BL/6, mouse, serum, po; 10 mg/kg, BID, AAV/HBV model mice, day 27
ASSAY ENDPOINT: Tmax

Return reported Tmax; argument: Cc1cc2n(c1)S(=O)(=O)c1ccc(C(=O)NCC[C@H]3COCCO3)cc1NC2=O [Compound 1]
1 h

###

Experiment: Pharmacokinetic analysis of test compounds in AAV/HBV model mice
Type: in vivo, C57BL/6 mice
Conditions: C57BL/6, mouse, serum, po, 10 mg/kg, BID, AAV/HBV model mice, day 27; read-out: AUC0-last
ASSAY ENDPOINT: AUC(0-t) (µM·h)
Hi! Could you send only the number? It should be in µM·h, unit omitted.

Could you share which AUC(0-t) value was measured for Cc1cc2n(c1)S(=O)(=O)c1ccc(C(=O)NCC[C@H]3COCCO3)cc1NC2=O ?
47.3
